Exercise: state measured An (absorption number) for each of the compounds provided.
- EXPERIMENTAL_PROTOCOL: Solubility limited absorbable dose (SLAD) calculation with predicted human jejunal Peff
- CONDITIONS: Peff × tres/R; minimum 1
Reply: number alone, nothing else.

May I ask what An (absorption number) has been recorded for COc1cc2[nH]c(C)c(-c3ccc(Oc4ccc(OC(F)(F)F)cc4)cc3)c(=O)c2cc1Cl [ELQ300] ? 13

# An (absorption number) lookup, item Cc1nc(Nc2ncc(N3CCN(C)[C@H](C)C3)c(Nc3cc(C)n(C)n3)n2)cc(C2CC2)c1F [MMV253] 8.1

So what's the measured An (absorption number) for this one? CCc1nc(N)nc(N)c1-c1ccc(Cl)cc1 [Pyrimethamine] 5.9

May I ask what An (absorption number) has been recorded for CCCCN(CCCC)CCC(O)c1cc2c(Cl)cc(Cl)cc2c2cc(C(F)(F)F)ccc12 (stereo not shown) [Halofantrine] ? 13

Give the measured An (absorption number) of CO[C@H]1O[C@@H]2O[C@@]3(C)CC[C@H]4[C@H](C)CC[C@@H]([C@H]1C)[C@@]24OO3 [Artemether] . 4.7

If you can, please state the reported An (absorption number) value of CC(C)(N)CNC(=O)C[C@H]1CC[C@]2(CC1)OO[C@]1(O2)C2CC3CC(C2)CC1C3 [OZ277, Arterolane] . 3.2

// query An (absorption number) value for entry CCN(CC)CCCNc1ccnc2cc(Cl)ccc12.Cl.Cl [AQ-13] 2.2

Value lookup for An (absorption number); key = O=C1C(O)=C([C@H]2CC[C@H](c3ccc(Cl)cc3)CC2)C(=O)c2ccccc21 [Atovaquone] 13

Dear colleague, I am looking for the recorded An (absorption number) of the following compound: C[C@H]1[C@H](N2CCS(=O)(=O)CC2)O[C@@H]2O[C@@]3(C)CC[C@H]4[C@H](C)CC[C@@H]1[C@@]24OO3 [Artemisone] 6.0

Requested read-out: An (absorption number). Entry: CC(C)NC(=N)NC(=N)Nc1ccc(Cl)c(Cl)c1 [Chlorproguanil] 1.8

// returns reported An (absorption number) for input C[C@H]1c2cccc(O)c2C(=O)C2=C(O)[C@]3(O)C(=O)C(C(N)=O)=C(O)[C@@H](N(C)C)[C@@H]3[C@@H](O)[C@@H]21 [Doxycyclin] 1.0

What does the data say about its An (absorption number)? Entry: CCc1nc(N)nc(N)c1OCCCOc1ccccc1CCC(=O)O.Cl [P218] 1.0

# lookup: An (absorption number) of CS(=O)(=O)O.FC1CCN(CCOc2ccc(C3CCC4(CC3)OOC3(OO4)C4CC5CC(C4)CC3C5)cc2)CC1 (stereo not shown) [TDD-E209] 13

For the compound Clc1ccc2c(N3CCN(CCCN4CCN(c5ccnc6cc(Cl)ccc56)CC4)CC3)ccnc2c1 [Piperaquine] , what An (absorption number) is on record? 13

Could you share which An (absorption number) value was measured for C[C@H]1Cc2c([nH]c3cc(Cl)c(F)cc23)[C@@]2(N1)C(=O)Nc1ccc(Cl)cc12 [KAE609] ? 13

Request the reported An (absorption number) associated with C[C@H]1[C@@H](O)O[C@@H]2O[C@@]3(C)CC[C@H]4[C@H](C)CC[C@@H]1[C@@]24OO3 [Dihydroartemisinin] 5.2
